FYI, the data here is from patent US10165776B2.

# Test system: Chenopodium album
# Measurement Protocol: Weed foliar treatment test (Test 3, 1.0 to 2.0 leaf stage)
# Type: in vivo
# Details: 10 g a.i./10 a; foliar spray at 1.0 to 2.0 leaf stage of Digitaria ciliaris; 3 weeks at 25° C.
Provide the reported herbicidal efficacy, Chenopodium album of each item.

Exercise: What measured herbicidal efficacy, Chenopodium album is associated with N#Cc1cnn(-c2nn3c(c2Cl)CCCC3)c1NC(=O)Cc1ccccc1 [Compound 3] on Chenopodium album?
Solution: 10 (10: 100%)

Exercise: What measured herbicidal efficacy, Chenopodium album is associated with N#Cc1cnn(-c2nn3c(c2Cl)CCCC3)c1NC(=O)CCc1ccccc1 [Compound 19] on Chenopodium album?
Solution: 10 (10: 100%)

Exercise: What measured herbicidal efficacy, Chenopodium album is associated with Cc1cccc(CC(=O)Nc2c(C#N)cnn2-c2nn3c(c2Cl)CCCC3)c1 [Compound 9] on Chenopodium album?
Solution: 10 (10: 100%)

Exercise: What measured herbicidal efficacy, Chenopodium album is associated with N#Cc1cnn(-c2nn3c(c2Cl)CCCC3)c1NC(=O)Cc1cccc(F)c1 [Compound 11] on Chenopodium album?
Solution: 10 (10: 100%)

Exercise: What measured herbicidal efficacy, Chenopodium album is associated with N#Cc1cnn(-c2nn3c(c2Cl)CCCC3)c1NC(=O)Cc1ccc(F)cc1 [Compound 15] on Chenopodium album?
Solution: 10 (10: 100%)

Exercise: What measured herbicidal efficacy, Chenopodium album is associated with O=C(Nc1c([N+](=O)[O-])cnn1-c1nn2c(c1Cl)CCCC2)c1ccccc1 [Control agent 2.19, reference compound] on Chenopodium album?
Solution: 5 (5: 50% to less than 60%)

Exercise: What measured herbicidal efficacy, Chenopodium album is associated with N#Cc1cnn(-c2nn3c(c2Cl)CCCC3)c1NC(=O)c1ccccc1 [Control agent 4.192, reference compound] on Chenopodium album?
Solution: 5 (5: 50% to less than 60%)

Exercise: What measured herbicidal efficacy, Chenopodium album is associated with O=C(Cc1ccccc1)Nc1c([N+](=O)[O-])cnn1-c1nn2c(c1Cl)CCCC2 [Compound 5] on Chenopodium album?
Solution: 10 (10: 100%)

Exercise: What measured herbicidal efficacy, Chenopodium album is associated with Cc1ccccc1CC(=O)Nc1c(C#N)cnn1-c1nn2c(c1Cl)CCCC2 [Compound 6] on Chenopodium album?
Solution: 10 (10: 100%)
